Target: human TREM2/DAP12 fusion protein (human, UniProt O43914 41-113, limits assumed)
Sequence (O43914 other isoform, or with tags, fused parts or gaps limits assumed): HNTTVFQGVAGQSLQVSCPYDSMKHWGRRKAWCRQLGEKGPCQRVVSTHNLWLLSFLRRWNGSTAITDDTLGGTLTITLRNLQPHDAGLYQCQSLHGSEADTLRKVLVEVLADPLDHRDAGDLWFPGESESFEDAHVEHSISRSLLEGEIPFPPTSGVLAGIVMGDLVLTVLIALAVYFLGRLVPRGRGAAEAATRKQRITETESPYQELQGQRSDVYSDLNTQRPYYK
Assay: cell-based or functional assay
Can you tell me Soluble luciferase activation at 10 µg/ml Fold over control for the items I'm about to list?
Numbers only, in fold over control.

AL2p huIgG1 (human mouse chimeric parental antibody) (antibody, V domains shown, Mouse variable region with human IgG1 Fc region; Fab and IgG formats under one id; also called chimeric parental AL2p antibody as huIgG1) VH: QVQLQQSGPELVKPGASLKISCKASGYAFSSSWMNWVKQRPGKGLEWIGRIYPGDGDTNYNGEFRVRATLTADTSSTTAYMQLSSLTSEDSAVYFCARLLRNQPGESYAMDYWGQGASVTVSS VL: DVVMTQTPLSLPVSLGDQASISCRSSQSLVHSNGYTYLHWYLQKPGQSPKLLIYKVSNRFSGVPDRFSGSGSGTDFTLKISRVEADDLGVYFCSQSTRVPYTFGGGTKLEIK: 3.55
AL2p-h25 (antibody, human IgG1, V domains shown, humanized, human IgG1; Fab and IgG formats under one id) VH: QVQLVQSGAEVKKPGASLKISCKASGYAFSSSWMNWVRQAPGQGLEWIGRIYPGDGDTNYNGEFRVRATLTADTSTSTAYMELSSLRSEDTAVYYCARLLRNQPGESYAMDYWGQGALVTVSS VL: DVVMTQTPLSLSVTPGQPASISCRSSQSLVHSNGYTYLHWYLQKPGQSPQLLIYKVSNRFSGVPDRFSGSGSGTDFTLKISRVEAEDLGVYFCSQSTRVPYTFGQGTKLEIK: 7.45
AL2p-h59 (antibody, human IgG1, V domains shown, humanized, human IgG1; Fab and IgG formats under one id) VH: QVQLVQSGAEVKKPGASVKVSCKASGYAFSSSWMNWVRQAPGQRLEWMGRIYPGDGDTNYAQKFQGRVTITRDTSASTAYMELSSLRSEDTAVYYCARLLRNQPGESYAMDYWGQGTLVTVSS VL: DIVMTQSPLSLPVTPGEPASISCRSSQSLVHSNGYTYLHWYLQKPGQSPQLLIYKVSNRFSGVPDRFSGSGSGTDFTLKISRVEAEDVGVYYCSQSTRVPYTFGGGTKVEIK: 7.06

Could I get Soluble luciferase activation at 10 µg/ml Fold over control for every one of these entries?
1. AL2p-h22 (antibody, human IgG1, V domains shown, humanized, human IgG1; Fab and IgG formats under one id) VH: QVQLVQSGAEVKKPGASVKVSCKASGYAFSSSWMNWVRQAPGQGLEWIGRIYPGDGDTNYAQKFQGRVTMTADTSTSTVYMELSSLRSEDTAVYYCARLLRNQPGESYAMDYWGQGTLVTVSS VL: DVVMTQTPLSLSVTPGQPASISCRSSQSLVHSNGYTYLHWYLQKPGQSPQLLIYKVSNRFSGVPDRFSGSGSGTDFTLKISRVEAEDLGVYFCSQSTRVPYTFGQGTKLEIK
2. AL2p-h23 (antibody, human IgG1, V domains shown, humanized, human IgG1; Fab and IgG formats under one id) VH: QVQLVQSGAEVKKPGASLKISCKASGYAFSSSWMNWVRQAPGQGLEWIGRIYPGDGDTNYAQKFQGRATLTADTSTSTAYMELSSLRSEDTAVYYCARLLRNQPGESYAMDYWGQGALVTVSS VL: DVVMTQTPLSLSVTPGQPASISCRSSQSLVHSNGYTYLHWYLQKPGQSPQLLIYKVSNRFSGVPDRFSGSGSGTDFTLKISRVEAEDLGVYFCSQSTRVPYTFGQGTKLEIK

Response given:
5
5.38

Data provenance: patent US20200317776A1
